Target: T1, orthogonal hCD122 receptor (hoRb), hCD122 with H133D and Y134F (human, UniProt P14784 27-550)
T1 sequence: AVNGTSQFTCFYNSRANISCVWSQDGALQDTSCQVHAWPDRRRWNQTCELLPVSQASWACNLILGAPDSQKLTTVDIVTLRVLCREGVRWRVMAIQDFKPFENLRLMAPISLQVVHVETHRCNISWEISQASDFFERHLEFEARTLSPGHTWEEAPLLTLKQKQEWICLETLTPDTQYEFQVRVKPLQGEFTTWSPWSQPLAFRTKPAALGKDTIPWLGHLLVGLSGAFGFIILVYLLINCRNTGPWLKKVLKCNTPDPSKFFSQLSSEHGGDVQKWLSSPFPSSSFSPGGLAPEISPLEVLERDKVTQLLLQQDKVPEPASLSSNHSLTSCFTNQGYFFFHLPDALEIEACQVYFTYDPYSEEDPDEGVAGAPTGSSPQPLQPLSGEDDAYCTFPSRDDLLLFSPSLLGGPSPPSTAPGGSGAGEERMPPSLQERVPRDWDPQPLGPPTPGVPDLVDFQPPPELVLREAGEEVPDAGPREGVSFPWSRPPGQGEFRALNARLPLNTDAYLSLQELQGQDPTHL
Assay: cell-based or functional assay
Endpoint: NKL Ortho Proliferation Signal 1:10

(1) T3D, SQVLKA (ligand) APDSSSTKKTQLQLSQLLVLLKAILNGINNYKNPKLTRMLTFKFYMPKKATELKHLQCLEEELKPLEEVLNLAQSKNFHLRPRDLISNINVIVLELKGSETTFMCEYADETATIVEFLNRWITFCQSIISTLT
(2) SQVLGA (ligand) APTSSSTKKTQLQLSQLLVLLGAILNGINNYKNPKLTRMLTFKFYMPKKATELKHLQCLEEELKPLEEVLNLAQSKNFHLRPRDLISNINVIVLELKGSETTFMCEYADETATIVEFLNRWITFCQSIISTLT
Select one: 1 or 2 . Criterion: greater recorded NKL Ortho Proliferation Signal 1:10. Answer by stating the label of the chosen item.
1
(1: 53900, 2: 11700)
